assay_target: Casein kinase 1 (CK1δ/ε)
experiment_summary: CK1δ/ε kinase assay
Assay type: biochemical, porcine
setup_conditions: Table 5; 15 μM ATP; read-out: IC50 CK1
pIC50: −log10 of the molar value.
metric_name: pIC50

Previously resolved entries follow.
Qu. Field request: pIC50 | item: COc1ccc(/C=C2\SC(N3CCOCC3)=NC2=O)cc1OC
Ans. < 5.00

Qu. Field request: pIC50 | item: O=C1N=C(N2CCN(Cc3ccc4c(c3)OCO4)CC2)S/C1=C\c1ccc2c(c1)OCO2
Ans. < 5.00

Qu. Field request: pIC50 | item: COc1ccc(/C=C2\SC(N3CCSCC3)=NC2=O)cc1OC
Ans. < 5.00

Qu. Field request: pIC50 | item: O=C1N=C(Nc2ccc(Cl)cc2)S/C1=C\c1ccc2c(c1)OCO2
Ans. < 5.00

Further cases:
Qu. Field request: pIC50 | item: O=C1N=C(N2CCCCC2)S/C1=C\c1ccc2c(c1)CCO2
Ans. ≤ 5.00

* * *

Readings of melting point for the listed compounds

Qu. Field request: melting point | item: O=C1NC(=S)S/C1=C\c1ccc(O)c(O)c1 [Compound 3j]
Ans. 210 to 212 °C

Qu. Field request: melting point | item: O=C1NC(=S)S/C1=C\c1ccc2c(c1)OCCO2 [Compound 3f]
Ans. 250 to 252 °C

Qu. Field request: melting point | item: O=C1NC(=S)S/C1=C\c1ccc2c(c1)CCO2 [Compound 3g]
Ans. 250 to 252 °C

Qu. Field request: melting point | item: COc1ccc(/C=C2\SC(=S)NC2=O)cc1O [Compound 3b]
Ans. 222 to 224 °C

Qu. Field request: melting point | item: O=C1NC(=S)S/C1=C\c1cc2ccccc2o1 [Compound 3l]
Ans. 246 to 250 °C

Qu. Field request: melting point | item: O=C1NC(=S)S/C1=C\c1cc(O)cc(O)c1 [Compound 3k]
Ans. 230 to 232 °C

Now, please, on to the next compound.
Qu. Field request: melting point | item: O=C1NC(=S)S/C1=C\c1cc(Br)c2c(c1)OCO2 [Compound 3i]
Ans. > 260 °C

* * *

assay_target: DYRK1A (Rattus norvegicus, UniProt Q63470)
Construct: GST; made in house; host or cells: Escherichia coli
experiment_summary: DYRK1A kinase assay
Assay type: biochemical
setup_conditions: Table 5; 15 μM ATP
metric_name: pIC50
pIC50 (log units): -log10 of the concentration in mol/L.

Previously resolved entries follow.
Qu. Field request: pIC50 | item: O=C1N=C(N2CCN(c3ccc(F)cc3)CC2)S/C1=C\c1ccc2c(c1)OCO2
Ans. 5.80

Qu. Field request: pIC50 | item: O=C1N=C(N2CCOCC2)S/C1=C\c1ccc2c(c1)OCO2
Ans. 6.20

Further cases:
Qu. Field request: pIC50 | item: O=C1N=C(Nc2ccccc2)S/C1=C\c1ccc2c(c1)OCCO2
Ans. 6.57

Qu. Field request: pIC50 | item: O=C1N=C(N2CCSCC2)S/C1=C\c1ccc2c(c1)OCCO2
Ans. 6.77

Qu. Field request: pIC50 | item: O=C1N=C(Nc2ccccc2)S/C1=C\c1ccc2c(c1)CCO2
Ans. 6.92

* * *

Readings of pIC50 for the listed compounds
assay_target: GSK-3α/β
experiment_summary: GSK-3α/β kinase assay
Type: biochemical, porcine
setup_conditions: Table 5; 15 μM ATP; read-out: IC50 GSK3α/β
pIC50: −log10 of the molar value.

Previously resolved entries follow.
Qu. Field request: pIC50 | item: O=C1N=C(N2CCN(c3ccc(F)cc3)CC2)S/C1=C\c1ccc2c(c1)OCO2
Ans. < 5.00

Qu. Field request: pIC50 | item: O=C1N=C(N2CCCCC2)S/C1=C\c1ccc2c(c1)OCO2
Ans. 5.13

Now, please, on to the next compound.
Qu. Field request: pIC50 | item: COc1ccc(/C=C2\SC(N3CCSCC3)=NC2=O)cc1OC
Ans. < 5.00
